# condition: a range is the spread between reports
Measured melting point, listed per entry.
reportedEndpoint: melting point

> print(dat)
                        entrysmiles    valuereported
 1                     CCCCc1ccccc1  -88 to -87.9 °C
 2                   O=C1CCCCCCCCC1      24 to 28 °C
 3       O=C(Cl)C(c1ccccc1)c1ccccc1    53 to 56.5 °C
 4         Cc1c(N)cccc1[N+](=O)[O-]      90 to 92 °C
 5                        OC/C=C\CO        4 to 7 °C
 6  O=[N+]([O-])c1cccc(-c2ccccc2)c1      59 to 62 °C
 7                        O=C(O)CCl    61.5 to 63 °C
 8                   Oc1nc2ccccc2s1    138 to 139 °C
 9              O=C(Cl)c1ccc(Cl)cc1      12 to 16 °C
10          CCCCCCCCCCCCCCCCCCCCCCO    70 to 72.5 °C
11                O=C(O)c1cccc(O)c1    202 to 203 °C
12      CCOC(=O)C(C(=O)OCC)c1ccccc1    16 to 16.5 °C
13                      CCC1=CCCCC1          -110 °C
14          COc1cc(C(=O)O)cc(O)c1OC    195 to 196 °C
15                         CC(C)C#N  -72 to -71.5 °C
16                    C=CCCCCC(=O)O    -6.5 to -6 °C

----------
# condition: a range is the spread between reports
reportedEndpoint: melting point

> print(dat)
                                    compound  reportedendpoint    valuereported
 1                  Cc1cc(C)c(CC(=O)O)c(C)c1     melting point    168 to 169 °C
 2  CCCN(CC1CC1)c1c([N+](=O)[O-])cc(C(F)(F)F)cc1[N+](=O)[O-]     melting point    32 to 32.5 °C
 3                   O=[N+]([O-])c1ccccc1CCl     melting point      47 to 51 °C
 4                        COC(=O)c1cccc(I)c1     melting point    54 to 54.5 °C
 5                            Nc1cc(Cl)ccc1O     melting point    140 to 143 °C
 6                       COc1cc(C(C)=O)ccc1O     melting point    114 to 115 °C
 7                    CC(=O)c1c[nH]c2ccccc12     melting point    189 to 194 °C
 8                              CC1(C)CCCCC1     melting point  -33.3 to -33 °C
 9                  CC(=O)c1ccc(OCC(=O)O)cc1     melting point    173 to 176 °C
10                                        CO     melting point  -98 to -97.5 °C
11                           CCCC(C)(C)C(C)C     melting point          -117 °C
12                       CC(=O)Nc1ccc(Cl)cc1     melting point    178 to 179 °C
13                            CC(C)CCCCC(C)C     melting point    -55 to -54 °C
14                                   N#CCCCl     melting point    -51 to -50 °C
15  OCC1OC(OC2(CO)OC(CO)C(O)C2O)C(O)C(O)C1O (stereo not drawn)     melting point    186 to 188 °C
16                                 Oc1ccccc1     melting point    40.9 to 42 °C
17                           CCCCCCCCC(=O)Cl     melting point  -61 to -60.5 °C
18                     CC(=O)CC(=O)Nc1ccccc1     melting point      85 to 86 °C
19                       OC1(c2ccccc2)CCCCC1     melting point    60 to 63.5 °C
20                        Cc1cc(N)c2ccccc2n1     melting point    164 to 169 °C
21                                  Cc1ccco1     melting point  -89 to -87.5 °C
22                                 CCOC(C)=O     melting point  -84 to -83.6 °C
23             c1ccc(-c2nnc(-c3ccccc3)o2)cc1     melting point    139 to 140 °C
24                         CC(=O)OCCc1ccccc1     melting point  -31.1 to -31 °C
25                             O=C(O)CCCCCBr     melting point      34 to 35 °C
26                            CCOC(=O)CC(C)C     melting point  -99.3 to -99 °C
27      C=C(CC)C(=O)c1ccc(OCC(=O)O)c(Cl)c1Cl     melting point    121 to 122 °C
28                               CCCCCCCCC#N     melting point  -34.2 to -34 °C
29                c1ccc2[nH]c(-c3cscn3)nc2c1     melting point           300 °C
30                                CCCC(O)CCC     melting point  -42 to -41.2 °C
31                                CCCC(=O)CC     melting point  -55.5 to -55 °C
32                      CC(C)(C)C1CCC(=O)CC1     melting point    48.5 to 49 °C
33           CCCCCCCCP(=O)(CCCCCCCC)CCCCCCCC     melting point      52 to 55 °C

----------
Entries and their measured melting point follow.
# condition: a range is the spread between reports
reportedEndpoint: melting point

> print(dat)
                                    compound  reportedendpoint    valuereported
 1                            CC(=O)CCC(=O)O     melting point      29 to 33 °C
 2  O=C(O)CCCCC1SCC2NC(=O)NC21 (centres undefined)     melting point    230 to 232 °C
 3                                    FC(F)F     melting point  -160 to -155 °C
 4                    Clc1cc(Cl)c(Cl)c(Cl)c1     melting point    51.5 to 55 °C
 5                              Cc1cncc(C)c1     melting point    -9 to -6.6 °C
 6      CC1CCC2CC1C2(C)C (centres undefined)     melting point    -53 to -50 °C
 7       O=C(c1ccccc1)c1ccc([N+](=O)[O-])cc1     melting point    137 to 138 °C
 8                              CC(C)CC(=O)O     melting point  -33 to -29.3 °C
 9                                N#CCC(=O)O     melting point      66 to 67 °C
10               O=[N+]([O-])c1c(F)cc(F)cc1F     melting point      3.5 to 4 °C
11                        Cc1cc(C(=O)O)ccc1N     melting point           170 °C
12                             O=S1(=O)CCCO1     melting point    31.5 to 32 °C
13        c1ccc2c(c1)-c1cccc3c1c-2cc1ccccc13     melting point    164 to 168 °C
14  CC12CCC(C1)C(C)(C)C2=O (centres undefined)     melting point      5 to 6.1 °C
15                           COc1cc(Cl)ccc1O     melting point    16.5 to 17 °C
16                       NNS(=O)(=O)c1ccccc1     melting point    102 to 103 °C
17                             N#CSCc1ccccc1     melting point      42 to 43 °C
18                          Clc1cccc(Cl)c1Cl     melting point    52.6 to 55 °C
19          CC1CNC(C)CN1 (centres undefined)     melting point    114 to 118 °C
20                          CC(C)(O)c1ccccc1     melting point      32 to 36 °C
21              CC1=NS(=O)(=O)c2cc(Cl)ccc2N1     melting point    327 to 330 °C
22                             ClC(Cl)(Cl)Br     melting point    -6 to -5.7 °C
23                       O=C(O)C(=O)c1ccccc1     melting point      65 to 66 °C
24                       C=C(C(=O)O)C(F)(F)F     melting point    50 to 51.5 °C
25            Nc1ccc(N)c2c1C(=O)c1ccccc1C2=O     melting point    263 to 268 °C
26                    Cc1c(C)c(C)c(C)c(C)c1C     melting point    164 to 168 °C
27      CC1(C)COC(=O)C1O (centres undefined)     melting point      90 to 92 °C
28                                   CC(N)=O     melting point      79 to 81 °C
29                            Cc1nc2ccccc2s1     melting point      12 to 14 °C
30                                      NCCS     melting point      96 to 98 °C
31           OC[C@@H](O)[C@@H](O)[C@@H](O)CO     melting point    102 to 103 °C
32                              CCCCCCCCCCCC     melting point   -10 to -9.6 °C
33                            CCc1ccc(O)cc1O     melting point    97 to 98.5 °C
34                               CCCCCCCCCCl     melting point  -39.4 to -39 °C
